Target protein (sequence): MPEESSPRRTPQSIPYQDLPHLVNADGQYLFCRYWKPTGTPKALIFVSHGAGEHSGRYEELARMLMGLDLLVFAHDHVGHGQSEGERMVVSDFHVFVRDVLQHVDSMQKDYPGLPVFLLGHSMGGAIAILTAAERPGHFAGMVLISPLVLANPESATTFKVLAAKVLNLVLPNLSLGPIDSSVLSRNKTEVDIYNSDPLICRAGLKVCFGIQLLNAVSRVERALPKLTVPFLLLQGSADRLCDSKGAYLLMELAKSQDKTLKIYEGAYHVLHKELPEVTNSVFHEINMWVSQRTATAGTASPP
Parameter Measured: IC50 (nM)

Examples from the recorded data:
[[record]]
compound = "O=C1CO[C@H]2CCN(C(=O)N3CC(c4ccc(C5COC5)cc4)C3)C[C@H]2N1"
parameter_measured = "IC50"
readout_value = 100

[[record]]
compound = "Cc1ccc(C(c2ccccc2)C2CCN(C(=O)N3CC[C@@H]4OCC(=O)N[C@@H]4C3)CC2)cc1 (single isomer, unassigned)"
parameter_measured = "IC50"
readout_value = 0.1

[[record]]
compound = "O=C1CO[C@H]2CCN(C(=O)N3CC(F)(c4ccc(Br)cc4)C3)C[C@H]2N1"
parameter_measured = "IC50"
readout_value = 90

[[record]]
compound = "COc1ccc(C(c2ccccc2)C2CCN(C(=O)N3CC[C@@H]4OCC(=O)N[C@@H]4C3)CC2)cc1OC (single isomer, unassigned)"
parameter_measured = "IC50"
readout_value = 0.4

[[record]]
compound = "O=C1CO[C@H]2CCN(C(=O)N3CC(c4ccc(N5CCC(F)C5)cc4)C3)C[C@H]2N1 (some centres unmarked)"
parameter_measured = "IC50"
readout_value = 23


I. CCCc1ccc(C2CN(C(=O)N3CC[C@@H]4OCC(=O)N[C@@H]4C3)C2)cc1
II. O=C1CO[C@H]2CCN(C(=O)N3CC(c4ccc(OCC(F)(F)F)cc4)C3)C[C@H]2N1
III. O=C1CO[C@H]2CCN(C(=O)N3CCC(C(c4ccccc4)c4cccc(OCCF)c4)CC3)C[C@H]2N1 (single isomer, unassigned)
Incoming: Rank ascending by IC50. Returns: the labels arranged in the requested order.
Outgoing: III, I, II
(III: 0.4 nM, I: 2 nM, II: 7 nM)

I. CC(C)(C)c1ccc(C2CN(C(=O)N3CC[C@@H]4OCC(=O)N[C@@H]4C3)C2)cc1
II. O=C1CO[C@H]2CCN(C(=O)N3CCC(c4cccc(Br)c4)C3)C[C@H]2N1 (some centres unmarked) [Example 164]
III. CC(Oc1ccc(C(F)(F)F)cc1)C1CN(C(=O)N2CC[C@@H]3OCC(=O)N[C@@H]3C2)C1 (some centres unmarked) [Example 92]
IV. O=C1CO[C@H]2CCN(C(=O)N3CC(c4cc(F)c(OC(F)(F)F)c(F)c4)C3)C[C@H]2N1
Incoming: Sort by IC50, descending. Returns: the labels arranged in the requested order.
Outgoing: II, III, IV, I

I. CC(c1ccc(C(F)(F)F)cc1)C1CCN(C(=O)N2CC[C@@H]3OCC(=O)N[C@@H]3C2)CC1 (single isomer, unassigned) [Example 46]
II. CC(OC1CCN(C(=O)N2CC[C@@H]3OCC(=O)N[C@@H]3C2)CC1)c1ccc(C(F)(F)F)cc1 (some centres unmarked)
Incoming: Which gives the smaller IC50 number: I or II ? Indicate which entry you chose by stating its label.
Outgoing: I
(I: 3 nM, II: 73 nM)
